- subject_of_test: recombinant human A2A receptors (Homo sapiens, UniProt P29274)
- Construct: expressed in transfected cells; host or cells: Sf9 insect cells infected with virus; membranes
- Sequence (P29274 whole entry): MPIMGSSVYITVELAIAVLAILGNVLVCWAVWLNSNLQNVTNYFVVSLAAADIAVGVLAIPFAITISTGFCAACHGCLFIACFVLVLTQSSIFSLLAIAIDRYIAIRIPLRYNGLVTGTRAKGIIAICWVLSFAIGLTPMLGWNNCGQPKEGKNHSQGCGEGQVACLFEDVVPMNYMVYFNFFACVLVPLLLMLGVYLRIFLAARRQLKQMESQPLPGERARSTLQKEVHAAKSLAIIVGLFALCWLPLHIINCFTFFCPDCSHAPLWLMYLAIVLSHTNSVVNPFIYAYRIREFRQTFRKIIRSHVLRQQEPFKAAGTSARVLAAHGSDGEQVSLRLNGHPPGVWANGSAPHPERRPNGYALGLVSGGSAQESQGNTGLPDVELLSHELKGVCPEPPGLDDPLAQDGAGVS
- assay_method_text: Radioligand competition binding with 125I-APE or 125I-ZM241385, Sf9 cell membranes
- test_settings: 125I-APE or 125I-ZM241385, Sf9 membranes; class symbols
pKi: −log10 of the molar value.
observed_property: pKi

GET pKi where system = recombinant human A2A receptors (Homo sapiens, UniProt P29274) and item = CCNC(=O)[C@H]1O[C@@H](n2cnc3c(N)nc(C#CCC4CCN(C(=O)OCc5ccccc5)CC4)nc32)[C@@H](O)C1O (stereo partly drawn) [Compound 32, reference compound]
> 9.00

Quote pKi with test system recombinant human A2A receptors (Homo sapiens, UniProt P29274) for Nc1nc(C#CCC2CCN(C(=O)Oc3ccccc3)CC2)nc2c1ncn2[C@@H]1O[C@H](CO)[C@@H](O)[C@H]1O [Compound 4, reference compound]
> 9.00

Report its pKi with recombinant human A2A receptors (Homo sapiens, UniProt P29274) as the test system: Nc1nc(C#CCC2CCN(C(=O)Oc3ccc(F)cc3)CC2)nc2c1ncn2[C@@H]1O[C@H](CO)[C@@H](O)[C@H]1O
> 9.00

Output reported pKi of the molecule Nc1nc(C#CCC2CCN(C(=O)OCc3ccc([N+](=O)[O-])cc3)CC2)nc2c1ncn2[C@@H]1O[C@H](CO)[C@@H](O)[C@H]1O on recombinant human A2A receptors (Homo sapiens, UniProt P29274).
> 8.00

Tell me its pKi on recombinant human A2A receptors (Homo sapiens, UniProt P29274): Nc1nc(C#CCC2CCN(C(=O)Oc3ccc(F)cc3)CC2)nc2c1ncn2[C@@H]1O[C@H](C(=O)NC2CC2)C(O)[C@@H]1O (stereo partly drawn)
> 9.00

Output reported pKi of the molecule CCNC(=O)[C@H]1O[C@@H](n2cnc3c(N)nc(C#CCC4CCN(C(=O)Oc5ccc([N+](=O)[O-])cc5)CC4)nc32)[C@@H](O)C1O (stereo partly drawn) on recombinant human A2A receptors (Homo sapiens, UniProt P29274).
> 9.00
